- System Name: Glycine receptor subunit alpha-1 (Homo sapiens, UniProt P23415)
- Sequence (P23415 whole entry): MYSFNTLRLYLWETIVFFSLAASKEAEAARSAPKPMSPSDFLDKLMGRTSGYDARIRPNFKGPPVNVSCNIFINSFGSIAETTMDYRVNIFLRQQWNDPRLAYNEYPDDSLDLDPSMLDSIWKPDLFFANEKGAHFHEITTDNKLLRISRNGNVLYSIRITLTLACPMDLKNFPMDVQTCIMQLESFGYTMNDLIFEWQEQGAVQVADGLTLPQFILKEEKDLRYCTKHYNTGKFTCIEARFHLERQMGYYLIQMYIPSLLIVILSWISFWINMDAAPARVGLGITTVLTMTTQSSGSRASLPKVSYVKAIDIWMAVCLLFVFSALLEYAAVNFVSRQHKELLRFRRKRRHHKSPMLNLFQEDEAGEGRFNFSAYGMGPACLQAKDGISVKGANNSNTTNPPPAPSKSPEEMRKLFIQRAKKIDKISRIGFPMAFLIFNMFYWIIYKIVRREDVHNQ
- Run Description: Activity at human alpha-1GlyR expressed in HEK293 cells by FMP assay
- Format: cell-based
Attribute: IC50

Reference set (2 entries):
[
  {
    "Molecule": "C[C@@H]1C(=O)O[C@H]2C[C@@]34[C@H]5C[C@@H](C(C)(C)C)[C@]36[C@@H](OC(=O)[C@@H]6O)O[C@@]4(C(=O)O5)[C@]21O [GINKGOLIDE A]",
    "System Name": "Glycine receptor subunit alpha-1 (Homo sapiens, UniProt P23415)",
    "Reported Measurement": "1.9 µM"
  },
  {
    "Molecule": "C[C@@H]1C(=O)O[C@H]2[C@H](O)[C@]34[C@@H]5C(=O)O[C@@]3(O[C@@H]3OC(=O)[C@H](O)[C@@]34[C@H](C(C)(C)C)[C@@H]5F)[C@@]12O",
    "System Name": "Glycine receptor subunit alpha-1 (Homo sapiens, UniProt P23415)",
    "Reported Measurement": "7.3 µM"
  }
]

Let us examine a further case.
Could you share what IC50 was measured for C[C@@H]1C(=O)O[C@H]2C[C@@]34C5C[C@@H](C(C)(C)C)C3C(=O)O[C@]4(C(=O)O5)[C@]21O (stereo partly drawn) , tested on Glycine receptor subunit alpha-1 (Homo sapiens, UniProt P23415)? > 100 µM

====

- System Name: Glycine receptor subunit alpha-1 (Homo sapiens, UniProt P23415)
- Run Description: Activity at human alpha-1GlyR expressed in HEK293 cells by FMP assay
- Type: cell-based
Overview of recorded IC50 for various molecules

[
  {
    "Molecule": "CC(=O)O[C@H]1C(=O)OC2O[C@@]34C(=O)OC5C[C@@H](C(C)(C)C)C21[C@@]53C[C@@H]1OC(=O)[C@@H](C)[C@@]14O (stereo not given in full) [10-ACETOXY-GINKGOLIDE B]",
    "Reported Measurement": "> 100 µM"
  }
]

Reported IC50 for C[C@@H]1C(=O)O[C@H]2[C@H](O)[C@]34[C@@H]5C(=O)O[C@@]3(O[C@@H]3OC(=O)[C@H](O)[C@@]34[C@H](C(C)(C)C)[C@@H]5N=[N+]=[N-])[C@@]12O : what is it? 17 µM

Name the reported IC50 value associated with the molecule CO[C@H]1C(=O)O[C@H]2O[C@@]34OC(=O)[C@@H]5[C@H](O)[C@@H](C(C)(C)C)[C@@]21[C@@]53[C@@H](O)[C@@H]1OC(=O)[C@@H](C)[C@@]14O 9.8 µM

If you can, please state the reported IC50 value of C[C@@H]1C(=O)O[C@@H]2[C@H]1[C@@]13OC4OC(=O)[C@H](O)C45[C@H](C(C)(C)C)[C@@H](O)C(OC1=O)[C@]53[C@H]2O (stereo not given in full) [GINKGOLIDE M] . 0.78 µM

If you can, please state the reported IC50 value of COC(=O)/C(C)=C1\CC[C@@]23C4C[C@@H](C(C)(C)C)C25C(OC(=O)[C@@H]5O)O[C@]13C(=O)O4 (stereo not given in full) . > 100 µM

Fill in the blank: the reported IC50 of C[C@@H]1C(=O)O[C@H]2[C@H](O)[C@]34C5OC(=O)[C@@]3(OC3OC(=O)[C@H](O)C34[C@H](C(C)(C)C)[C@@H]5O)[C@@]12O (stereo not given in full) is ____. > 100 µM

Request the reported IC50 associated with C[C@@H]1C(=O)O[C@H]2[C@H](O)[C@]34[C@@H]5C(=O)O[C@@]3(O[C@@H]3OC(=O)[C@H](O)[C@@]34[C@H](C(C)(C)C)[C@@H]5Cl)[C@@]12O 7.6 µM

Which IC50 value belongs to C[C@@H]1C(=O)O[C@H]2C[C@@]34C5C[C@@H](C(C)(C)C)C36C(=O)C(=O)OC6O[C@]4(C(=O)O5)[C@]21O (stereo not given in full) ? > 100 µM

Field request: IC50 | item: C[C@@H]1C(=O)O[C@H]2[C@H](O)[C@]34[C@@H]5OC(=O)[C@]3(O[C@@H]3OC(=O)[C@H](O)[C@@]34[C@H](C(C)(C)C)[C@H]5O)[C@@]12O [GINKGOLIDE C] 4.7 µM

For the molecule shown here, C[C@@H]1C(=O)O[C@H]2[C@H](O)[C@@]34C5OC(=O)[C@@]3(OC3OC(=O)[C@H](O)C34[C@H](C(C)(C)C)[C@H]5OS(=O)(=O)C(F)(F)F)[C@@]12O (stereo not given in full) , give the reported IC50. > 100 µM

# lookup: IC50 of CC(=O)O[C@H]1C(=O)OC2O[C@@]34C(=O)OC5C[C@@H](C(C)(C)C)C21[C@@]53C[C@@H]1OC(=O)[C@H](C)[C@@H]14 (stereo not given in full) > 100 µM

IC50 lookup needed for CC1=C2C(=C[C@]34C5OC(=O)[C@@]23OC2OC(=O)[C@H](O)C24[C@H](C(C)(C)C)[C@H]5O)OC1=O (stereo not given in full) , thanks. > 100 µM

Please give the measured IC50 for this molecule: CC(=O)O[C@@H]1C2OC(=O)[C@]34OC5OC(=O)[C@H](O)C5([C@@H]1C(C)(C)C)[C@@]23[C@@H](O)[C@@H]1OC(=O)[C@@H](C)[C@@]14O (stereo not given in full) > 100 µM

Entry under review: C[C@@H]1CO[C@H]2C[C@@]34C5C[C@@H](C(C)(C)C)C36C(OC[C@@H]6O)O[C@]4(CO5)[C@@]12O (stereo not given in full) . Reported IC50? > 100 µM

Fill in: IC50 of C[C@@H]1C(=O)O[C@H]2[C@H](O)[C@]34C5OC(=O)[C@@]3(OC3OC(=O)[C@H](O)C34[C@H](C(C)(C)C)C5=O)[C@@]12O (stereo not given in full) is ___ > 100 µM
